# System: Escherichia coli TOP10;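 further: peptides expressed intracellularly from a pBAD plasmid library in pooled LB shake-flask culture, induced with 0.3% L-arabinose, DNA abundance read by NGS, three biological replicates, DESeq2 with apeglm shrinkage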
# assay.info: shrunken log2 fold change of peptide-encoding DNA abundance (4.5 h post-induction vs induction); higher = less antimicrobial activity (less host growth inhibition)
# test.conditions: time post-induction: 4.5 h; library: site-saturation at positions 5, 18, 19, 20
Returns one of y or n; y when shrunken log2 fold change is >= -0.03.

chain: RRIRYRPPRLPRPRPRPPHTPRP
qualitative.label: n
//
chain: RRIRMRPPRLPRPRPRPWHGPRP
qualitative.label: n
//
chain: RRIRARPPRLPRPRPRPQSRPRP
qualitative.label: n
//
chain: RRIRFRPPRLPRPRPRPWHCPRP
qualitative.label: y
//
chain: RRIRPRPPRLPRPRPRPYGKPRP
qualitative.label: n
//
chain: RRIRHRPPRLPRPRPRPWAAPRP
qualitative.label: n
//
chain: RRIRWRPPRLPRPRPRPIRMPRP
qualitative.label: y
//
chain: RRIRNRPPRLPRPRPRPPPIPRP
qualitative.label: y
//
chain: RRIRHRPPRLPRPRPRPWDKPRP
qualitative.label: y
//
chain: RRIRNRPPRLPRPRPRPFGYPRP
qualitative.label: n
//
chain: RRIRYRPPRLPRPRPRPTFWPRP
qualitative.label: y
//
chain: RRIRERPPRLPRPRPRPESYPRP
qualitative.label: y
//
chain: RRIRHRPPRLPRPRPRPGYYPRP
qualitative.label: n
//
chain: RRIRDRPPRLPRPRPRPTWHPRP
qualitative.label: y
//
chain: RRIRMRPPRLPRPRPRPSVTPRP
qualitative.label: y

The reported measurements were obtained from the supplement of paper PMC9112550.
